- Test system: NCI-H522 lung
- assay-method-text: NCI tumour cell line growth inhibition, 48 h
Overview of reported TGI across a group of molecules:
The response must be a number in µM with no trailing unit.

Solved cases (4 shown):
molecule	system-name	TGI (µM)
COc1cccc2c1C(=O)c1c(O)c3c(c(O)c1C2=O)C[C@@](O)(/C(C)=N/NC(=O)c1ccccc1)C[C@@H]3OC1CC(N)C(O)C(C)O1 (some centres not stated)	NCI-H522 lung	1.1
O=c1c(-c2ccccc2Cl)coc2cc(F)ccc12	NCI-H522 lung	36.5
O=C1/C(=C/c2ccccc2Br)COc2ccc(O)c(O)c21	NCI-H522 lung	0.494
O=C(NC1CCN(Cc2ccccc2)CC1)c1cc(C(=O)NC2CCN(Cc3ccccc3)CC2)cc(C(=O)NC2CCN(Cc3ccccc3)CC2)c1	NCI-H522 lung	10.1

Read the entry O=C1C(Cl)=C(Nc2cccc(O)c2)C(=O)N1c1cccc(Cl)c1 and write its reported TGI. 36.3

Read the entry N=C1C(c2nc3ccccc3s2)=C(O)CN1c1ccc(Cl)cc1Cl and write its reported TGI. 35.2

Read the entry O=C1OC[C@@H]2Cc3c([nH]c4ccccc34)[C@@H](c3cc(O)c(O)c(O)c3)N12 and write its reported TGI. 22.8

Read the entry CCN(CC)CCOC(=O)/C(=C/c1ccc(OC)cc1)c1cc(OC)c(OC)c(OC)c1 and write its reported TGI. 9.32

Read the entry N#C/C(=C/C=C/c1ccccc1)S(=O)c1ccccc1 (configuration not stated) and write its reported TGI. 1.35

###

- Test system: K-562 leukemia
- assay-method-text: NCI tumour cell line growth inhibition, 48 h
measured-attribute: TGI

Solved cases (3 shown):
molecule	TGI
COc1cccc2c1C(=O)c1c(O)c3c(c(O)c1C2=O)C[C@@](O)(/C(C)=N/NC(=O)c1ccccc1)C[C@@H]3OC1CC(N)C(O)C(C)O1 (stereo partly specified)	4.25 µM
C[Si](C)(C)/C=C\CCCN1C(=O)CCC1=O	> 100 µM
Cc1ccc(/C=N/Nc2nncc3ccccc23)s1	> 100 µM

Read the entry O=C1CC(c2ccc[nH]2)=NN1c1ccccc1 and write its reported TGI. > 100 µM

Read the entry Cc1ccc(O)c(-c2csc(NCN3CCN(CNc4nc(-c5cc(C)ccc5O)cs4)CC3)n2)c1 and write its reported TGI. > 100 µM

Read the entry COC1(OC)C2(Cl)C(Cl)=C(Cl)C1(Cl)C1COCC12 (stereo unspecified) and write its reported TGI. > 100 µM

Read the entry COc1ccc2c(c1)CCCN1CCc3cc(OC)c(OC)cc3C21 (stereo unspecified) and write its reported TGI. > 100 µM

Read the entry COc1cc2ccnc3c2c(c1OC)CC1CC(O)C(OC)CC31 (stereo unspecified) and write its reported TGI. > 100 µM

###

- Tested on: RXF 393 renal
- assay-method-text: NCI tumour cell line growth inhibition, 48 h
Where a SMILES comes first, the peptide text is derived from it. [ ]: non-standard residue; d: D form. The star is where a group is joined. ξ: configuration not given here. Propanoyl(3-(4-MeO-Ph)) = COc1ccc(CCC(=O)*)cc1; Thr(3ξ) = CC(O)[C@H](N)C(=O)O; dNMeL = CN[C@H](CC(C)C)C(=O)O; OBn = c1ccc(CO*)cc1; ξLac = CC(O)C(=O)O
Overview of reported TGI across a group of molecules:
The response must be a number in µM with no trailing unit.

Solved cases (4 shown):
molecule	value-measured
COC(OC)(c1ccccc1)C(I)I	10.4
COc1ccc(Nc2nc(N)c(C(=O)c3ccccc3)s2)cc1	24.2
COc1ccc(CCC(=O)OC(C)[C@H](NC(=O)[C@@H](CC(C)C)N(C)C(=O)[C@@H]2CCCN2C(=O)C(C)O)C(=O)OCc2ccccc2)cc1 (some centres undefined) (H-[ξLac]P[dNMeL][Thr(3ξ)](Propanoyl(3-(4-MeO-Ph)))-OBn)	44.7
O=C1/C(=C/c2ccccc2)CN(CCC(=O)N2C/C(=C\c3ccccc3)C(=O)/C(=C/c3ccccc3)C2)C/C1=C\c1ccccc1	19.9

Read the entry CCN(CC)CCOC(=O)/C(=C/c1ccc(OC)cc1)c1cc(OC)c(OC)c(OC)c1 and write its reported TGI. 5

Read the entry COC(=O)c1ccc(CCc2cc(O)c(Br)cc2O)cc1 and write its reported TGI. 32.9

Read the entry O=C1OC[C@@H]2Cc3c([nH]c4ccccc34)[C@@H](c3cc(O)c(O)c(O)c3)N12 and write its reported TGI. 45.6

Read the entry C[C@]12CC(C#N)C(=O)C(O)=C1CC[C@@H]1C2CC[C@@]2(C)C1CC[C@@H]2O (some centres undefined) and write its reported TGI. 44.4

###

Overview of reported TGI across a group of molecules:
- System: U251 CNS
- assay-method-text: NCI tumour cell line growth inhibition, 48 h
The response must be a number in µM with no trailing unit.

Solved cases (5 shown):
molecule	value-measured
O=C1/C(=C/c2ccccc2Br)COc2ccc(O)c(O)c21	2.33
Clc1ccc2c(NCCNc3ccnc4cc(Cl)ccc34)ccnc2c1	32.1
CCOC(=O)COc1c(OC)cc(C2C3=C(COC3=O)Oc3cc4c(cc32)OCO4)cc1OC (stereo unspecified)	81.9
CN(C1=NS(=O)(=O)N=C(N(C)c2ccccc2)O1)c1ccccc1	36.8
O=C(COc1ccc(Cl)cc1)N1N=C(c2ccc([N+](=O)[O-])o2)CC1(O)c1ccccc1 (stereo unspecified)	15.5

Read the entry O=C(O)c1cc(O)c2c(c1)Cc1cccc(O)c1C2=O and write its reported TGI. 37.3

Read the entry CC(=O)NC1C(OCc2ccccc2)OC(COC(=O)CCCCCNc2ccc([N+](=O)[O-])c3[nH]c4ccc(O)cc4c(=O)c23)C(O)C1OC(C)C(=O)N[C@@H](C)C(=O)N[C@H](CCC(=O)OCc1ccccc1)C(N)=O (stereo partly specified) and write its reported TGI. 7.04

Read the entry CN(C)CCCN=c1cc2c(=O)n(CCCN(C)C)c(=O)c3c(NCCCN(C)C)cc4c(O)n(CCCN(C)C)c(=O)c1c4c3-2 and write its reported TGI. 11

###

Overview of reported TGI across a group of compounds:
- Test system: OVCAR-4 ovarian
- assay-method-text: NCI tumour cell line growth inhibition, 48 h

Solved cases (2 shown):
>>> print(df.to_string())
                                   compound  measured_attribute  value_measured
0       COC(=O)c1ccc(CCc2cc(O)c(Br)cc2O)cc1                 TGI         23.2 µM
1  CCN(CC)CCOC(=O)/C(=C/c1ccc(OC)cc1)c1cc(OC)c(OC)c(OC)c1                 TGI        > 100 µM

Read the entry CCCC#CC(O)(C(=O)OC1CCN(C)CC1)C1CCCCC1 (stereo not given) and write its reported TGI. > 100 µM

Read the entry Cc1ccc(S(=O)(=O)/N=C(\[O-])C2=C(c3ccccc3)NN(C)c3nc4cccc[n+]4nc32)cc1 and write its reported TGI. > 100 µM

Read the entry N=c1oc2ccc(Cl)cc2cc1C(=O)NCc1ccccc1 and write its reported TGI. > 100 µM

###

Overview of reported GI50 across a group of compounds:
- System: MOLT-4 leukemia
- assay-method-text: NCI tumour cell line growth inhibition, 48 h

Solved cases (5 shown):
compound	GI50
O=c1ccccc(-c2ccc(-c3ccco3)cc2)c1O	0.501 µM
Cc1ccc2c(N/N=C\c3ccco3)cc(C)nc2n1	2.67 µM
COc1cc(C)[nH]c(=O)c1CN1CCc2c(Cl)cc([C@H](OC)C3COC3)c(Cl)c2C1=O	> 100 µM
NCCCn1c2c(c3cc4c(cc3c1=O)OCO4)C(=O)c1ccccc1-2	0.0223 µM
O=C(NC1CCN(Cc2ccccc2)CC1)c1cc(C(=O)NC2CCN(Cc3ccccc3)CC2)cc(C(=O)NC2CCN(Cc3ccccc3)CC2)c1	1.22 µM

Determine reported GI50 for CN(C)Cc1cccc(CN(C)C)[c]1[Sn]([Br])([c]1ccccc1)[c]1ccccc1 ; test system: MOLT-4 leukemia. 5.02 µM

Determine reported GI50 for CCC(c1ccc(OC)cc1)C(CC)c1ccc(O)c(CN2CCCC2)c1 (stereo not drawn) ; test system: MOLT-4 leukemia. 2.54 µM

Determine reported GI50 for CC1OC(O[C@H]2/C=C/C=C/C=C/C=C/C=C/C=C/C=C/[C@H](C)[C@@H](O)[C@@H](C)[C@H](C)OC(=O)C[C@H](O)C[C@H](O)CC[C@@H](O)[C@H](O)C[C@H](O)C[C@]3(O)C[C@H](O)[C@@H](C(=O)O)[C@H](C2)O3)C(O)C(N)C1O (stereo partly drawn) ; test system: MOLT-4 leukemia. 29.2 µM

###

- Tested on: SN12C renal
- assay-method-text: NCI tumour cell line growth inhibition, 48 h
Overview of reported TGI across a group of compounds:

Solved cases (4 shown):
                                   compound  system_name  measured_attribute  value_measured
0  Cc1ccc(Nc2nc(=O)[nH]c(=O)[nH]2)cc1N=[N+]=[N-]  SN12C renal                 TGI        > 100 µM
1       Cn1c2ccccc2n2c(=O)c3cccnc3c(C#N)c12  SN12C renal                 TGI        > 100 µM
2  COc1cc2ccnc3c2c(c1OC)CC1CC(O)C(OC)CC31 (stereo not given)  SN12C renal                 TGI        > 100 µM
3                Oc1ccc2ccccc2c1N=Nc1ccccn1  SN12C renal                 TGI        > 100 µM

Read the entry CNC(=O)c1cncc(/C=C/c2c(C)cccc2C)c1 and write its reported TGI. > 25 µM
